Reference source: paper PMC4475445

ASSAY_TARGET: Bmx (Homo sapiens)
Sequence (P51813 whole entry): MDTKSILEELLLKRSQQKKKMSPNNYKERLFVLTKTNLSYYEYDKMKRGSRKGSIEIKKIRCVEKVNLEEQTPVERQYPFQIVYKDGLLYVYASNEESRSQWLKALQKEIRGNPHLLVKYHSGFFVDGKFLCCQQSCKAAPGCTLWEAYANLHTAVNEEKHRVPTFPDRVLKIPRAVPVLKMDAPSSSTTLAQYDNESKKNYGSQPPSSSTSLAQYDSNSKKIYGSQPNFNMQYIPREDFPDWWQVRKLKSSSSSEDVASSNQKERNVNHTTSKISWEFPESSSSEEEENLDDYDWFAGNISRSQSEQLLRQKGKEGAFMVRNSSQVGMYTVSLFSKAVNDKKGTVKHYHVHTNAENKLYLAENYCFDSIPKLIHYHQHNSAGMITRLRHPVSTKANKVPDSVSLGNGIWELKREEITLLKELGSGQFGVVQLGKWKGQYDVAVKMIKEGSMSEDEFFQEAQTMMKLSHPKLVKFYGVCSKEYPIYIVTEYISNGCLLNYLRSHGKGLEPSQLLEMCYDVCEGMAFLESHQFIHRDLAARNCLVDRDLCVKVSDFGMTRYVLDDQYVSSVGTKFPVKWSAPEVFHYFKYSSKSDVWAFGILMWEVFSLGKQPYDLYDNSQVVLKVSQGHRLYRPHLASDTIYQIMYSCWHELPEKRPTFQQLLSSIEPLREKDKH
MEASURED_PARAMETER: pIC50
Please treat pIC50 as minus the base-10 logarithm of the molar concentration.

Look at this molecule and give its reported pIC50. "C=CC(=O)Nc1cccc(Nc2nc(Nc3ccc(OCCOC)c(F)c3)ncc2F)c1" 8.68

* * *

ASSAY_TARGET: ITK (Homo sapiens, UniProt Q08881)
Sequence (Q08881 1-620): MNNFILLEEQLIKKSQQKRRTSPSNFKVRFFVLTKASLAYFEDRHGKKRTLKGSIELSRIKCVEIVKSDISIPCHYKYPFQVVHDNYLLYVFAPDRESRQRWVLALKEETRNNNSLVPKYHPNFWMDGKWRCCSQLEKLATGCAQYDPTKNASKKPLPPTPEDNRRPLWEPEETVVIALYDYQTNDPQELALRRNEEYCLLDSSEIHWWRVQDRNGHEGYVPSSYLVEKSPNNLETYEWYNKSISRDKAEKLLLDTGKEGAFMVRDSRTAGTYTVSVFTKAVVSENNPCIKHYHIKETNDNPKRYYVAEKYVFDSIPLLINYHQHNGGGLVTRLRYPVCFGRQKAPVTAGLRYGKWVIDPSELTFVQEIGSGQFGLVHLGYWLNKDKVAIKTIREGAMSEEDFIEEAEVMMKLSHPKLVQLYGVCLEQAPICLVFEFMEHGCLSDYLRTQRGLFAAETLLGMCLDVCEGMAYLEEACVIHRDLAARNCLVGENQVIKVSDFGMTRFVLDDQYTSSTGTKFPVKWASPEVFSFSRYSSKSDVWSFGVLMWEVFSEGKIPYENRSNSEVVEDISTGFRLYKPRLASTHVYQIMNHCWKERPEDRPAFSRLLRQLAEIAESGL
MEASURED_PARAMETER: pIC50
Just so you know, pIC50 here is -log10 of the concentration in molar units; reply with that number alone.

So what does the record say about pIC50 for C=CC(=O)Nc1cccc(Nc2nc(Nc3ccc(OCCOC)c(F)c3)ncc2F)c1 [Compound1] ? 6.76
